Parameter: Ksv (Stern–Volmer constant). Scope: all listed entries.
Test system: human serum albumin (HSA)
Construct: purchased Sigma-Aldrich
Test: Steady-state fluorescence quenching of HSA (Stern–Volmer analysis)
Format: binding
Conditions: 310 K; 0.10 M tris-HCl pH 7.4, 0.10 M NaCl, 2 µM HSA, 0–20 µM drug, λex 295 nm
Experimental: The fluorescence intrinsic to proteins is attributed to aromatic amino acid residues, such as tryptophan (Trp), phenylalanine (Phe), and tyrosine (Tyr). The fluorescence of HSA in particular can be traced back to its tyrosine and tryptophan residues, therefore the experiments were performed with an excitation wavelength of 295 nm, because tryptophan absorbs light in this range [33]. […]
Counter-ions that a name gives are not always drawn.

Below: 5 molecules and their reported Ksv (Stern–Volmer constant).
| Molecule | Ksv (Stern–Volmer constant) |
| --- | --- |
| O=C(NC[C@H]1CN(c2ccc(N3CCOCC3=O)cc2)C(=O)O1)c1ccc(Cl)s1 | 0.98 ± 0.04 ×10^4 M^−1 |
| COc1ccc(-n2nc(C(N)=O)c3c2C(=O)N(c2ccc(N4CCCCC4=O)cc2)CC3)cc1 | 2.79 ± 0.02 ×10^4 M^−1 |
| CN1CCc2nc(C(=O)N[C@@H]3C[C@@H](C(=O)N(C)C)CC[C@@H]3NC(=O)C(=O)Nc3ccc(Cl)cn3)sc2C1.Cc1ccc(S(=O)(=O)O)cc1.O [EDT, Edoxaban tosylate hydrate] | 1.27±0.02 ×10^4 M^−1 |
| CN1CCc2nc(C(=O)N[C@@H]3C[C@@H](C(=O)N(C)C)CC[C@@H]3NC(=O)C(=O)Nc3ccc(Cl)cn3)sc2C1 | 1.28 ± 0.05 ×10^4 M^−1 |
| COc1ccc(NC(=O)c2ccc(C(=N)N(C)C)cc2)c(C(=O)Nc2ccc(Cl)cn2)c1 [BE, betrixaban] | 1.44 ± 0.04 ×10^4 M^−1 |

// next item, Ksv (Stern–Volmer constant) requested
Short answer please: Ksv (Stern–Volmer constant), human serum albumin (HSA), entry COc1ccc(NC(=O)c2ccc(C(=N)N(C)C)cc2)c(C(=O)Nc2ccc(Cl)cn2)c1 [BEM, betrixaban maleate] 1.36±0.03 ×10^4 M^−1

====

system: human serum albumin (HSA); construct: purchased Sigma-Aldrich; assay: Steady-state fluorescence quenching of HSA (Stern–Volmer analysis); type: binding; conditions: 298 K; 0.10 M tris-HCl pH 7.4, 0.10 M NaCl, 2 µM HSA, 0–20 µM drug, λex 295 nm
Counter-ions that a name gives are not always drawn.
Parameter: Ksv (Stern–Volmer constant). Scope: all listed entries.

Below: 5 compounds and their reported Ksv (Stern–Volmer constant).
| Compound | Assayed System | Ksv (Stern–Volmer constant) |
| --- | --- | --- |
| CN1CCc2nc(C(=O)N[C@@H]3C[C@@H](C(=O)N(C)C)CC[C@@H]3NC(=O)C(=O)Nc3ccc(Cl)cn3)sc2C1 | human serum albumin (HSA) | 1.60 ± 0.04 ×10^4 M^−1 |
| CN1CCc2nc(C(=O)N[C@@H]3C[C@@H](C(=O)N(C)C)CC[C@@H]3NC(=O)C(=O)Nc3ccc(Cl)cn3)sc2C1.Cc1ccc(S(=O)(=O)O)cc1.O [EDT, Edoxaban tosylate hydrate] | human serum albumin (HSA) | 1.79±0.03 ×10^4 M^−1 |
| O=C(NC[C@H]1CN(c2ccc(N3CCOCC3=O)cc2)C(=O)O1)c1ccc(Cl)s1 | human serum albumin (HSA) | 1.56 ± 0.03 ×10^4 M^−1 |
| COc1ccc(NC(=O)c2ccc(C(=N)N(C)C)cc2)c(C(=O)Nc2ccc(Cl)cn2)c1 [BE, betrixaban] | human serum albumin (HSA) | 1.86 ± 0.03 ×10^4 M^−1 |
| COc1ccc(NC(=O)c2ccc(C(=N)N(C)C)cc2)c(C(=O)Nc2ccc(Cl)cn2)c1 [BEM, betrixaban maleate] | human serum albumin (HSA) | 1.59±0.05 ×10^4 M^−1 |

// next item, Ksv (Stern–Volmer constant) requested
Short answer please: Ksv (Stern–Volmer constant), human serum albumin (HSA), entry COc1ccc(-n2nc(C(N)=O)c3c2C(=O)N(c2ccc(N4CCCCC4=O)cc2)CC3)cc1 3.36 ± 0.03 ×10^4 M^−1
